- TEST DESCRIPTION: chemical genetic growth profiling, strain panel (AID 1159580);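 note: tested at 20 µM; growth read once vehicle control cultures reached saturation at 30 °C; 1 = growth at the plate median or of vehicle wells; lower values mean less growth of the strain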
- EXPERIMENTAL CONTEXT: S. cerevisiae deletion strains, growth OD, locus YGR135W, strain pre9
About 2,000 (36%) of roughly 5,500 compounds were called active. Not shown: some 18% with an inconclusive outcome. Cut-off read from the data, not from the text of the source: active = normalized growth mostly below about 0.91 (no sharp cut-off); inconclusive = no clear call, values can overlap the other calls; inactive = mostly above about 0.92. This is one part of the list.
Classes used: active, inactive

COMPOUND	GROUP LABEL
CN(C)c1nc(N)c(C(=O)N=C(N)N)nc1Cl	inactive
CCOC(=O)c1c(C)cc(OC)cc1O	inactive
CC(=O)O[C@@H]1CC(=O)[C@@]2(C)C(CC(=O)[C@]3(C)C2CC[C@@]2(C)[C@H](c4ccoc4)OC(=O)C4OC423)C1(C)C (stereo not given in full)	inactive
CN[C@@H]1C(O)[C@@H](O[C@@H]2[C@@H](O)[C@H](O[C@H]3OC(CN)=CC[C@H]3N)[C@@H](N)C[C@H]2N)OC[C@]1(C)O (stereo not given in full)	inactive
COC(=O)c1c(C)cc(OC)cc1O	inactive
COc1ccc2c3c1OC1C(O)CC=C4C(C2)N(C)CCC431 (stereo not given)	inactive
Cc1cc(OC(=O)c2c(C)cc(OC(=O)c3c(C)cc(O)cc3O)cc2O)cc(O)c1C(=O)O	inactive
Cc1cc(OC(=O)c2c(C)cc(O)cc2O)cc(O)c1C(=O)O	inactive
CCOC(=O)c1c(C)cc(O)cc1O	active
CCC(=O)c1c(O)cc(O)cc1O	inactive

====

- TEST DESCRIPTION: chemical genetic growth profiling, strain panel (AID 1159580)
- EXPERIMENTAL CONTEXT: S. cerevisiae deletion strains, growth OD, locus YKL009W, strain mrt4
Hit rate of the full screen: of about 5,500 compounds, about 2,000 (36%) were called active. Inconclusive results (about 18%) are left out. No stated cut-off is given here; in the data, active means normalized growth mostly below about 0.91 (no sharp cut-off); inconclusive means no clear call, values can overlap the other calls; inactive means mostly above about 0.92. The list shows a part of the results.
Classes used: yes = active, no = inactive

In [3]: df
Out[3]:
                                   compound  group_label
0  Cc1cc(OC(=O)c2c(C)cc(OC(=O)c3c(C)cc(O)cc3O)cc2O)cc(O)c1C(=O)O          yes
1                    CCC(=O)c1c(O)cc(O)cc1O           no
2  CCCCC1C(=O)N(c2ccccc2)N(c2ccc(O)cc2)C1=O (stereo not given)           no
3    CC(=O)OC1CN2CCC1CC2 (stereo not given)           no
4                       CN1C(C)(C)CCCC1(C)C           no

====

- TEST DESCRIPTION: chemical genetic growth profiling, strain panel (AID 1159580)
- EXPERIMENTAL CONTEXT: S. cerevisiae deletion strains, growth OD, locus YHR027C, strain rpn1
About 2,000 (36%) of roughly 5,500 compounds were called active. Not shown: some 18% with an inconclusive outcome. Cut-off read from the data, not from the text of the source: active = normalized growth mostly below about 0.91 (no sharp cut-off); inconclusive = no clear call, values can overlap the other calls; inactive = mostly above about 0.92. Some of the results follow.
Classes used: yes (active), no (inactive)

>>> print(df.to_string())
                                   compound  group_label
0  NC(=O)c1ncn([C@@H]2O[C@H](CO)[C@@H](O)[C@H]2O)n1           no
1  CC(C)c1c(O)ccc2c1CCC1C(C)(C)CCC[C@]21C (some centres undefined)          yes
2            Cc1[nH]ccc2c1[nH]c1cc(=O)ccc12           no
3  CC(C1OC(C)(C)C(O)C1O)[C@@H]1CC[C@]2(C)C3=CCC4C(C)(C)C(=O)CC[C@]4(C)C3CC[C@@]12C (some centres undefined)           no
4  C[C@H]1O[C@H](OC2[C@@H](O)[C@@H](O)C(O)[C@H](O)[C@H]2O)[C@@H](N)C[C@@H]1N=C(N)C(=O)O (some centres undefined)           no
5                COc1cccc2c(C)cc(=O)[nH]c12           no
6  COc1ccc(Cl)cc1C(=O)NCCc1ccc(S(=O)(=O)NC(=O)NC2CCCCC2)cc1           no
7  CCCCCC(=O)Cc1cc(O)cc(O)c1C(=O)Oc1cc(CC(=O)CCCCC)c(C(=O)O)c(OC)c1          yes
8  CC(C)c1c(O)c(-c2cc3c(c(C(C)C)c2O)CCC2C(C)(C)CCC[C@]32C)cc2c1CCC1C(C)(C)CCC[C@]21C (some centres undefined)           no

====

Listing of entries alongside the reported normalized growth.
- TEST DESCRIPTION: chemical genetic growth profiling, strain panel (AID 1159580);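 note: tested at 20 µM; growth read once vehicle control cultures reached saturation at 30 °C; 1 = growth at the plate median or of vehicle wells; lower values mean less growth of the strain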
- EXPERIMENTAL CONTEXT: S. cerevisiae deletion strains, growth OD, locus YCL061C, strain MRC1, hits give low values
Hit rate of the full screen: of about 5,500 compounds, about 2,000 (36%) were called active. Inconclusive results (about 18%) are left out. The list shows a part of the results.
PROPERTY: normalized growth

>>> print(df.to_string())
                                    molecule  measured
 0        COc1cc(/C=C(\C#N)C(N)=S)cc(OC)c1OC         1
 1                  COc1cc(OC)c2ccc(=O)oc2c1     0.974
 2             CCN(CC)C(=O)c1[nH]c(C)c(C)c1C      1.01
 3                      COc1ccc2ccc(=O)oc2c1         1
 4            Cc1[nH]ccc2c1[nH]c1cc(=O)ccc12         1
 5  Oc1ccc2c(c1)OCC1(O)Cc3cc(O)c(O)cc3C21 (configuration not stated)      1.02
 6  N#Cc1ccc(-c2csc(-c3ccc(Oc4ccc(C(F)(F)F)cn4)cc3)n2)cc1      1.01
 7                 COc1c2ccoc2cc2oc(=O)ccc12      0.97
 8  CCCCCCC(C)OC(=O)COc1ccc(Cl)cc1Cl (configuration not stated)     0.993
 9  O=C1CC(Nc2ccccc2)C=C1Nc1ccccc1 (configuration not stated)      1.01
10      CCCCOc1cc(C(=O)NCCN(CC)CC)c2ccccc2n1     0.967
11  C[C@]12C=CC(=O)C=C1CCC1C2[C@@H](O)C[C@@]2(C)C1CC[C@]2(O)C(=O)COP(=O)(O)O (some centres not stated)     0.995

====

- TEST DESCRIPTION: chemical genetic growth profiling, strain panel (AID 1159580);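 note: tested at 20 µM; growth read once vehicle control cultures reached saturation at 30 °C; 1 = growth at the plate median or of vehicle wells; lower values mean less growth of the strain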
- EXPERIMENTAL CONTEXT: S. cerevisiae deletion strains, growth OD, locus YNL322C, strain KRE1
In all, about 5,500 compounds went through this assay and about 2,000 (36%) were called active. About 18% were inconclusive and are not listed. Cut-off read from the data, not from the text of the source: active = normalized growth mostly below about 0.91 (no sharp cut-off); inconclusive = no clear call, values can overlap the other calls; inactive = mostly above about 0.92. This is one part of the list.
Classes used: true (1) = active, false (0) = inactive

>>> print(df.to_string())
                                   compound  group_label
0  COc1ccc2c(c1)CCC1C2CC[C@@]2(C)C1CC[C@@H]2O (stereo partly drawn)     true (1)
1  Cc1cn([C@H]2C=C[C@@H](CO)O2)c(=O)[nH]c1=O    false (0)
2  COc1ccc2c(c1)CCC1C2CC[C@@]2(C)C1CC[C@@H]2NCCCCCCN1C(=O)C=CC1=O (stereo partly drawn)    false (0)

====

- TEST DESCRIPTION: chemical genetic growth profiling, strain panel (AID 1159580);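 note: tested at 20 µM; growth read once vehicle control cultures reached saturation at 30 °C; 1 = growth at the plate median or of vehicle wells; lower values mean less growth of the strain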
- EXPERIMENTAL CONTEXT: S. cerevisiae deletion strains, growth OD, locus YDL185W, strain tfp1, hits give low values
Out of some 5,500 compounds screened, about 2,000 (36%) were called active. Roughly 18% stayed inconclusive and do not appear here. The list shows a part of the results.
PROPERTY: normalized growth

>>> print(df.to_string())
                                   molecule  measured
0  NC(=O)c1ncn([C@@H]2O[C@H](CO)[C@@H](O)[C@H]2O)n1     0.978
1  COC(=O)[C@]1(C)CCC[C@]2(C)c3ccc(C(C)C)cc3C(=O)CC12 (stereo not given in full)         1
2  CC(C)N(CCC(C(N)=O)(c1ccccc1)c1ccccn1)C(C)C (stereo not given)     0.971
3  CC(=O)OC(C)C[N+](C)(C)C (stereo not given)      1.02
4  CC1CC[C@]2(NC1)O[C@H]1CC3C4CC[C@H]5C[C@@H](O)CC[C@]5(C)C4CC[C@]3(C)[C@H]1[C@@H]2C (stereo not given in full)    0.0599
5  C[N+](C)(C)CC(O)CC(=O)O (stereo not given)     0.996
6  COC(=O)[C@@]1(C)CCC[C@]2(C)c3ccc(O)c(C(C)C)c3CCC12 (stereo not given in full)     0.956
7  C[C@@H]1CC[C@@]2(NC1)O[C@H]1C[C@H]3C4CC=C5C[C@@H](O)CC[C@]5(C)C4CC[C@]3(C)C1[C@@H]2C (stereo not given in full)     0.673
8  C[C@@H]1CC[C@@]2(OC1)OC1CC3C4CC=C5C[C@@H](O)CC[C@]5(C)C4CC[C@]3(C)C1[C@@H]2C (stereo not given in full)     0.959
9     NC(=O)NCC(N)C(=O)O (stereo not given)     0.989
